Literature log10 IC50 values, system: UniProtKB P16050.
Field: value | Transform: log10 | Quantity: IC50 | Unit: nM

Answered examples (3):
1) COc1ccc(-c2cc3cc(F)c(F)cc3[nH]2)cc1NS(=O)(=O)c1cccc([N+](=O)[O-])c1 | 1.69
2) Cc1cc(C(=O)Nc2ccc(F)cc2Cl)nn1C(=O)NC1CCN(C(=O)OCc2ccccc2)CC1 | 2.82
3) COc1ccc(-c2cc3cc(F)c(F)cc3[nH]2)cc1NCc1ccc(C#N)cc1 | 2.06

Fill in: UniProtKB P16050 log10 IC50 for "COc1ccc(-c2cc3ccccc3[nH]2)cc1NC(=S)Nc1cccc(CC(=O)O)c1" = 2.87

Fill in: UniProtKB P16050 log10 IC50 for "CCOC(=O)CNC(=O)n1cc(C)c(C(=O)Nc2ccc(F)cc2Cl)n1" = 3.93

Fill in: UniProtKB P16050 log10 IC50 for "O=C(Nc1ccc(C(F)(F)F)cn1)c1cc(Cl)[nH]n1" = 2.48

Fill in: UniProtKB P16050 log10 IC50 for "COc1ccc(-c2cc3cc(F)c(F)cc3[nH]2)cc1NC(=S)Nc1cccc(C(=O)O)c1" = 1.40
